FYI, the data here is from patent US6391595B1.

Recorded Production rate of mono- and disaccharides, one value per entry.
molecular target: amylase derived from the Sulfolobus solfataricus strain KM1 (Saccharolobus solfataricus, UniProt Q55088); construct: endogenous in cells; host or cells: Sulfolobus solfataricus strain KM1 cells; experiment: Substrate specificity of the purified amylase (hydrolyzing properties, TSK-gel Amide-80 HPLC); type: biochemical; details: 25.0 Units/ml enzyme; 10 mM substrate (amylopectin and soluble starch 2.8%); 1 Unit = 1 μmol per hour
Sequence (Q55088 whole entry): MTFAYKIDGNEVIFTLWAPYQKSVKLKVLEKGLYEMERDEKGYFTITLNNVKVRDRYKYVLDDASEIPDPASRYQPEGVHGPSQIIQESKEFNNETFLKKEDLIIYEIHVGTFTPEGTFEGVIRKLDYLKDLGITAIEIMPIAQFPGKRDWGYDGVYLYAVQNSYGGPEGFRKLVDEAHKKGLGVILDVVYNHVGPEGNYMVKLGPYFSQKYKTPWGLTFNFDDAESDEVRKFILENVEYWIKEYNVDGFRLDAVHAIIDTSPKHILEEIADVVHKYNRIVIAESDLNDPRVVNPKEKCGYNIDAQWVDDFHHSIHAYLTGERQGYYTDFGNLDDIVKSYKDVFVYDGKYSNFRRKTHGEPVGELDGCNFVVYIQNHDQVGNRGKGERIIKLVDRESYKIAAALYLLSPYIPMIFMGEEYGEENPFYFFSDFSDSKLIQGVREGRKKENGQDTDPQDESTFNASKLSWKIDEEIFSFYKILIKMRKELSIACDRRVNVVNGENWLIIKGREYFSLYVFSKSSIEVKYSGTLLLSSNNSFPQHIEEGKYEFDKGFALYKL
Quantity: Production rate of mono- and disaccharides (units/ml)

Molecule	Test result
OCC1OC(OC2OC(CO)C(OC3OC(CO)C(OC4OC(CO)C(O)C(O)C4O)C(O)C3O)C(O)C2O)C(O)C(O)C1O [Maltosyltrehalose, α-D-maltotriosyl α-D-glucopyranoside]	3.93
OC[C@H]1O[C@H](O[C@H]2O[C@H](CO)[C@@H](O[C@H]3O[C@H](CO)[C@@H](O[C@H]4O[C@H](CO)[C@@H](O[C@H]5O[C@H](CO)[C@@H](O[C@H]6O[C@H](CO)[C@@H](O[C@H]7O[C@H](CO)[C@@H](O)[C@H](O)[C@H]7O)[C@H](O)[C@H]6O)[C@H](O)[C@H]5O)[C@H](O)[C@H]4O)[C@H](O)[C@H]3O)[C@H](O)[C@H]2O)[C@H](O)[C@@H](O)[C@@H]1O	25.5
OC[C@H]1O[C@H](O[C@H]2O[C@H](CO)[C@@H](O[C@H]3O[C@H](CO)[C@@H](O[C@H]4O[C@H](CO)[C@@H](O[C@H]5O[C@H](CO)[C@@H](O[C@H]6O[C@H](CO)[C@@H](O)[C@H](O)[C@H]6O)[C@H](O)[C@H]5O)[C@H](O)[C@H]4O)[C@H](O)[C@H]3O)[C@H](O)[C@H]2O)[C@H](O)[C@@H](O)[C@@H]1O	27.3
